Catalogue of variants with associated exon inclusion enrichment index
B1: mRNA-splicing (parent)
chain: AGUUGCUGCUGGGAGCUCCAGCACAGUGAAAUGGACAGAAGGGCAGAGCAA

variants of: B1; assay: exon inclusion enrichment index; higher = more inclusion; WT1 exon 5 minigene, HEK293
measure_name: exon inclusion enrichment index

mutant_name="U4A G5C C6A U7C C9A U10C" recorded_result=2.5
mutant_name="G5C C6U G8C C9U U10C G15U C16U" recorded_result=1.32
mutant_name=C22G recorded_result=2.76
mutant_name="U4A C6A U7C G8A U10A" recorded_result=0.0102
mutant_name="G5C C6G U7C U10C C36U A37G" recorded_result=2.77
mutant_name="C6A U7C C9A U10C A31G U32A" recorded_result=5.2
mutant_name="C6A U7A C9A U10A A20G G21U" recorded_result=0.779
mutant_name="G5A U7C G8A U10C A14U G15C" recorded_result=1.01
mutant_name="G5A C6U U7A G8U C9A A25U G26A" recorded_result=0.0732
mutant_name="G5A C6U U7A G8U C9A A39G A40G" recorded_result=0.00821
